Please respond with reported melting point for every item in the list.

Query: Assign melting point to the following record: Cc1ccc(C2(C(=O)N[C@H](CN3CCCC3)c3ccccc3)CC2)cc1NS(C)(=O)=O (stereo in doubt)
Response: 92 to 94 °C

Query: Assign melting point to the following record: `O=C(N[C@H](CN1CCCC1)c1ccccc1)C1(c2nc3ccccc3s2)CC1`
Response: 97 to 99 °C

Query: Assign melting point to the following record: `O=C1Cc2ccc(C3(C(=O)N[C@H](CN4CCCC4)c4ccccc4)CC3)cc2N1`
Response: 115 to 118 °C

Query: Assign melting point to the following record: `CS(=O)(=O)Nc1cccc(C2(C(=O)N[C@H](CN3CCCC3)C3CCCCC3)CC2)c1`
Response: 201 to 202 °C

Query: Assign melting point to the following record: `CS(=O)(=O)c1cccc(C2(C(=O)N[C@H](CN3CCCC3)c3ccccc3)CC2)c1.Cl`
Response: 68 to 70 °C

Query: Assign melting point to the following record: `COC(=O)c1ccc(Cn2c(=O)oc3ccc(C4(C(=O)N[C@H](CN5CCCC5)c5cccc(O)c5)CC4)cc32)cc1`
Response: 119 to 120 °C

Query: Assign melting point to the following record: Cn1c(=O)oc2ccc(C3(C(=O)N[C@H](CN4CCCC4)c4ccccc4)CC3)cc21 (stereo in doubt)
Response: 96 to 98 °C

Query: Assign melting point to the following record: `O=C(N[C@H](CN1CCCC1)c1cccc(O)c1)C1(c2ccc3oc(=O)[nH]c3c2)CC1`
Response: 132 to 134 °C

Query: Assign melting point to the following record: O=C(N[C@H](CN1CCCC1)c1ccccc1)C1(c2ccc3ccc(=O)[nH]c3c2)CC1 (stereo in doubt)
Response: 101 to 103 °C

Query: Assign melting point to the following record: N#Cc1ccc(COc2cccc([C@@H](CN3CCCC3)NC(=O)C3(c4ccc5oc(=O)[nH]c5c4)CC3)c2)cc1 (stereo in doubt)
Response: 88 to 89 °C

Query: Assign melting point to the following record: `O=C(N[C@H](CN1CCCC1)c1ccccc1)C1(c2ccc3c(c2)NS(=O)(=O)C=C3)CC1`
Response: 148 to 150 °C

Query: Assign melting point to the following record: `CS(=O)(=O)Nc1ccc(C2(C(=O)N[C@H](CN3CCCC3)c3ccccc3)CC2)cn1`
Response: 182.2 to 182.4 °C

Query: Assign melting point to the following record: `O=C(N[C@H](CN1CC[C@H](O)C1)c1ccccc1)C1(c2ccncc2)CC1`
Response: 112 to 114 °C

Query: Assign melting point to the following record: CS(=O)(=O)Nc1cc(C2(C(=O)N[C@H](CN3CCCC3)c3ccccc3)CC2)c(F)cc1F (stereo in doubt)
Response: 81.2 to 81.4 °C

Query: Assign melting point to the following record: `CN(C(=O)C1(c2ccccc2)CCC1)[C@H](CN1CCCC1)c1ccccc1.Cl`
Response: 234 to 235 °C

Query: Assign melting point to the following record: O=C(N[C@H](CN1CCCC1)c1ccccc1)C1(c2ccc3[nH]c(=O)[nH]c3c2)CC1 (stereo in doubt)
Response: 207 to 209 °C

Query: Assign melting point to the following record: `CN[C@H]1CCN(C[C@@H](NC(=O)C2(c3cccc(NS(C)(=O)=O)c3)CC2)c2ccccc2)C1`
Response: 80.6 to 80.8 °C
